Test system: MDA-MB-231 breast
assay-explanation: NCI tumour cell line growth inhibition, 48 h
reported-metric: TGI

Examples from the recorded data:
[[record]]
molecule = "CN1CCN(Cc2nc3cccc4c3c([n+]2[O-])-c2ccccc2-4)CC1"
recorded_result = "44.3 µM"

[[record]]
molecule = "NS(=O)(=O)c1ccc(N=Nc2c(O)[nH]c3ccc(Cl)cc23)cc1"
recorded_result = "> 25 µM"

[[record]]
molecule = "N=C(N)c1ccc(-c2ccc(-c3ccccc3)s2)s1"
recorded_result = "2.5 µM"

[[record]]
molecule = "CC1(C)OCC(C2OC(OC(=O)c3ccc(C(F)(F)F)cc3)C3OC(C)(C)OC23)O1 (stereo not given)"
recorded_result = "> 77.5 µM"


Please find the next molecule below.
Given c1ccc2c(c1)N[C@@H]1c3[nH]c4ccccc4c3CC[C@H]21 , state its recorded TGI.
29.9 µM
